Test system: EKVX NSCLC
Experiment: NCI tumour cell line growth inhibition, 48 h
Consider the following compounds and their measured GI50 readings.

{"Compound": "COc1ccc(/C=C/C(=O)c2sc(-n3nc(-c4ccccc4)cc3-c3ccccc3)nc2C)cc1", "Tested target": "EKVX NSCLC", "GI50": "51.1 µM"}
{"Compound": "C#CCOc1ccc2ncnc(Nc3ccc(NC(=O)C=C)cc3)c2c1", "Tested target": "EKVX NSCLC", "GI50": "> 100 µM"}
{"Compound": "NC(=S)c1c(N)n(C2OC(CO)C(O)C2O)c2ncnc(N)c12 (stereo not drawn)", "Tested target": "EKVX NSCLC", "GI50": "0.345 µM"}

Data provenance: PubChem BioAssay (NCI)
